Source listed as paper PMC10787407.

- experiment: PK study of SM components in plasma of AIA rats by UPLC-MS/MS (MG vs MPS group)
- condition-set: MG group: AIA rats, saline 21 days, then oral SM 39.2 g crude drug/kg; plasma; mean ± SEM
The label is Satisfied for T max below 8 min and Not satisfied for T max equal to or exceeding 8 min.

Known results for compounds:
COC[C@]12CN(C)C3[C@@H]4[C@H](OC)[C@H]1[C@@]3([C@@H](OC)C[C@H]2O)[C@@H]1C[C@@]2(O)[C@H](OC(=O)c3ccccc3)[C@@H]1[C@]4(O)[C@@H](O)[C@@H]2OC [Benzoylmesaconitine]; Not satisfied
CCN1C[C@]2(COC)[C@H](O)C[C@H](OC)[C@@]34[C@@H]5C[C@@]6(O)[C@H](OC(=O)c7ccccc7)[C@@H]5[C@@](O)([C@@H]([C@H](OC)[C@H]23)[C@@H]14)[C@@H](O)[C@@H]6OC [Benzoylaconine]; Satisfied
COc1ccc(-c2coc3cc(O[C@@H]4O[C@H](CO)[C@@H](O)[C@H](O)[C@H]4O)ccc3c2=O)cc1O [Calycosin-7-glycoside]; Satisfied
CCN1C[C@]2(COC)CC[C@H](O)[C@]34C1[C@H]([C@H](OC)[C@H]23)[C@@]1(O)C[C@H](OC)[C@H]2C[C@@H]4[C@@H]1[C@H]2O [Neoline]; Not satisfied

In: Given CCN1C[C@]2(COC)CC[C@H](OC)[C@]34C1[C@H](C[C@H]23)[C@@]1(O)C[C@H](OC)[C@H]2C[C@@H]4[C@@H]1[C@H]2O [Talatizamine] , is recorded T max strictly lower than 8 min?
Out: Not satisfied
